- Tested on: CAL-120
- Experiment summary: normalised response (% of control), CellTiter-Glo; higher = more viable cells (100 = DMSO, 0 = benzethonium chloride kill control)
- Applied conditions: incubation time: 72 h
Recorded endpoint: normalised response (%)
# value in %; strip the unit string

Recorded results for 4 compounds are shown here.
- CCc1cnn2c(NCc3ccc[n+]([O-])c3)cc(N3CCCC[C@H]3CCO)nc12 [Dinaciclib] (10 nM): 88.1
- CC(C)C(=O)Nc1ccc([N+](=O)[O-])c(C(F)(F)F)c1 [Flutamide] (100 nM): 98.5
- COc1cc(Nc2ncc(F)c(Nc3ccc4c(n3)N(COP(=O)(O)O)C(=O)C(C)(C)O4)n2)cc(OC)c1OC [Fostamatinib] (25 nM): 104
- NC(=O)c1cccc2cn(-c3ccc([C@@H]4CCCNC4)cc3)nc12 [MK-4827] (100 nM): 105

Proceeding to the next compound to report its normalised response.
Query normalised response for C[C@@H](C(=O)O)c1ccc(-c2ccccc2)c(F)c1 [Tarenflurbil] (100 nM)
98.3

----------
// normalised response lookup, one value per entry
- System: SK-BR-3
- Experiment summary: normalised response (% of control), CellTiter-Glo; higher = more viable cells (100 = DMSO, 0 = benzethonium chloride kill control)
- Applied conditions: incubation time: 72 h
# value in %; strip the unit string

Recorded results for 5 compounds are shown here.
• CO[C@H](C(=O)[C@@H](O)[C@@H](C)O)[C@@H]1Cc2cc3cc(O[C@H]4C[C@@H](O[C@@H]5C[C@@H](O)[C@H](O)[C@@H](C)O5)[C@H](O)[C@@H](C)O4)c(C)c(O)c3c(O)c2C(=O)[C@H]1O[C@H]1C[C@@H](O[C@@H]2C[C@@H](O)[C@@H](O[C@@H]3C[C@](C)(O)[C@H](O)[C@@H](C)O3)[C@@H](C)O2)[C@H](O)[C@@H](C)O1 [Plicamycin] (100 nM) = 102
• NC1(c2ccc(-c3nc4ccn5c(=O)[nH]nc5c4cc3-c3ccccc3)cc2)CCC1 [MK-2206] (10 nM) = 93.8
• O=C(c1cc(Cc2n[nH]c(=O)c3ccccc23)ccc1F)N1CCN(C(=O)C2CC2)CC1 [Olaparib] (100 nM) = 88.8
• CCN(CC)CCOc1ccc(C(=C(Cl)c2ccccc2)c2ccccc2)cc1 [Clomifene] (100 nM) = 104
• Cn1cc(C[C@@H](N)C(=O)O)c2ccccc21 [1-methyl-D-tryptophan] (50 nM) = 90.8

Query normalised response for NC(=O)NO [Hydroxyurea] (1000 nM)
103

Query normalised response for CC(C)NC[C@@H](C(=O)N1CCN(c2ncnc3c2[C@H](C)C[C@H]3O)CC1)c1ccc(Cl)cc1 [GDC-0068] (100 nM)
95.1

Query normalised response for CC[C@H](CC#N)OC(=O)N[C@@H](C)c1cccc(NC(=O)Nc2ccc(-c3cnco3)c(OC)c2)c1 [AVN944] (100 nM)
96

Query normalised response for Cn1nnc2c(C(N)=O)ncn2c1=O [Temozolomide] (100 nM)
96.5

Query normalised response for CN1CCN(c2nc(C3=C(c4c[nH]c5ccccc45)C(=O)NC3=O)c3ccccc3n2)CC1 [Sotrastaurin] (100 nM)
100

Query normalised response for CC/C(=C(\c1ccccc1)c1ccc(OCCN(C)C)cc1)c1ccccc1 [Tamoxifen] (100 nM)
99.4

Query normalised response for C[C@]12C=CC(=O)C=C1CC[C@@H]1[C@@H]2C(=O)C[C@@]2(C)[C@H]1CC[C@]2(O)C(=O)CO [Prednisone] (100 nM)
104

Query normalised response for Cc1c(C(=O)Nc2ccc(N3C[C@@H](C)O[C@@H](C)C3)nc2)cccc1-c1ccc(OC(F)(F)F)cc1 [Erismodegib] (100 nM)
88.6
